FYI, the data here is from patent US20230407243A1.

Property: Fold Change from EKO-35; scope: individual compounds
System: EKO-35-Pore strains with integrated AcrB, AcrEF, AcrD, MdtEF with pGDP2:emrE or empty pGDP-2
Test: Efflux pump interplay MIC profiling (pGDP2:emrE), porinated
Assay type: cell-based, Escherichia coli
Conditions: strain acrB pEmrE; Pore +
Respond using a number only.

Field: example entries. Status: answers known.
Problem: Give Fold Change from EKO-35 for the following compound: CO[C@@H]1[C@@H](OC(N)=O)[C@@H](O)[C@H](Oc2ccc3c(O)c(NC(=O)c4ccc(O)c(CC=C(C)C)c4)c(=O)oc3c2C)OC1(C)C
Result: 256

Problem: Hello, please tell me recorded Fold Change from EKO-35 for this one: CN(C)c1ccc(O)c2c1C[C@H]1C[C@H]3[C@H](N(C)C)C(O)=C(C(N)=O)C(=O)[C@@]3(O)C(O)=C1C2=O
Result: 4

Problem: Report Fold Change from EKO-35, nothing else, for this compound: CC[n+]1c(-c2ccccc2)c2cc(N)ccc2c2ccc(N)cc21 [ethidium bromide]
Result: 256

Next, consider the following compound.
Problem: Tell me measured Fold Change from EKO-35 for C[n+]1c2cc(N)ccc2cc2ccc(N)cc21.[Cl-] please.
Result: 256

----------
Tested on: wild-type E. coli K-12 str. BW25113
Assay: microbe, parasite or virus in culture
Format: cell-based, Escherichia coli
Conditions: Escherichia coli, BW25113; Table 10; without pore; technical duplicate; read-out: Minimum inhibitory concentration (MIC), K-12
Readout Label: log10(MIC) (log10 of the value in µg/mL)
Kindly note that the scale is log10 and the underlying MIC is in µg/mL.

For orientation, consider the following solved cases.
Problem: Complete the entry with log10(MIC) for [H]/N=C(\N/C(=N/[H])NCCCCCCNC(=N)NC(=N)Nc1ccc(Cl)cc1)Nc1ccc(Cl)cc1 [Chlorhexidine]
Result: -0.11

Problem: Give recorded log10(MIC). CCn1cc(C(=O)O)c(=O)c2cc(F)c(N3CCNCC3)cc21 [norfloxacin]
Result: -1.11

Problem: Query log10(MIC) for Cc1onc(-c2ccccc2)c1C(=O)N[C@@H]1C(=O)N2[C@@H]1SC(C)(C)[C@@H]2C(=O)O [oxacillin]
Result: 2.20

Problem: Please list log10(MIC) recorded for the compound CN(C)[C@@H]1C(O)=C(C(N)=O)C(=O)[C@@]2(O)C(O)=C3C(=O)c4c(O)cccc4[C@@](C)(O)[C@H]3C[C@@H]12 [tetracycline]
Result: 0.19

New cases:
Problem: Answer with the recorded log10(MIC) of CC1(C)S[C@@H]2[C@H](NC(=O)[C@H](N)c3ccccc3)C(=O)N2[C@H]1C(=O)O [ampicillin] only.
Result: 2.00

Problem: Recall and state the measured log10(MIC) for Nc1ccc(S(=O)(=O)Nc2nccs2)cc1 [Sulfathiazole] .
Result: 0.70

Problem: Identify the reported log10(MIC) for the following entry. CC(=O)NC[C@H]1CN(c2ccc(N3CCOCC3)c(F)c2)C(=O)O1 [linezolid]
Result: 2.70

----------
Tested on: EKO-35 strains producing different efflux pumps (EKO-35 araC::X)
Assay: Checkerboard synergy (FICI) of PAβN or NMP with antibiotics
Format: cell-based, Escherichia coli
Details: EKO-35 acrB; PAβN + antibiotic
Method: Synergy measurement using checkerboard analysis was performed in 96-well microtiter plates using the microdilution broth method, according to CLSI guidelines (Patel J. B., 2015). The cell inocula were prepared using the colony resuspension method. The minimum inhibitory concentrations (MICs) were defined as the lowest concentration that provided no growth, as determined by measurement of the OD600nm using a Synergy H1 microplate reader (BioTek). […]
Readout Label: FICI

Known results for compounds:
Problem: Please report FICI for the following compound: Cc1onc(-c2ccccc2)c1C(=O)N[C@@H]1C(=O)N2[C@@H]1SC(C)(C)[C@@H]2C(=O)O [oxacillin]
Result: 0.125

Problem: Write down FICI measured for item CO[C@@H]1[C@@H](OC(N)=O)[C@@H](O)[C@H](Oc2ccc3c(O)c(NC(=O)c4ccc(O)c(CC=C(C)C)c4)c(=O)oc3c2C)OC1(C)C [novobiocin]
Result: 0.156

Problem: Quick one: give measured FICI for CC(=O)O[C@H]1C[C@@]2(C)[C@@H](C[C@@H](O)[C@H]3[C@@]4(C)CC[C@@H](O)[C@@H](C)[C@@H]4CC[C@@]32C)/C1=C(\CCC=C(C)C)C(=O)O [fusidic acid]
Result: 0.129

Turning now to a further compound:
Problem: Fill in reported FICI for this entry: CC[C@H]1OC(=O)[C@H](C)[C@@H](O[C@H]2C[C@@](C)(OC)[C@@H](O)[C@H](C)O2)[C@H](C)[C@@H](O[C@@H]2O[C@H](C)C[C@H](N(C)C)[C@H]2O)[C@](C)(O)C[C@@H](C)C(=O)[C@H](C)[C@@H](O)[C@]1(C)O [erythromycin]
Result: 0.078
